Test target: T1, B7-H3 on CHO-K1 cells stably transfected with B7-H3 (GenScript #M00536) (UniProt Q5ZPR3 29-534, limits assumed)
T1 sequence (looked up): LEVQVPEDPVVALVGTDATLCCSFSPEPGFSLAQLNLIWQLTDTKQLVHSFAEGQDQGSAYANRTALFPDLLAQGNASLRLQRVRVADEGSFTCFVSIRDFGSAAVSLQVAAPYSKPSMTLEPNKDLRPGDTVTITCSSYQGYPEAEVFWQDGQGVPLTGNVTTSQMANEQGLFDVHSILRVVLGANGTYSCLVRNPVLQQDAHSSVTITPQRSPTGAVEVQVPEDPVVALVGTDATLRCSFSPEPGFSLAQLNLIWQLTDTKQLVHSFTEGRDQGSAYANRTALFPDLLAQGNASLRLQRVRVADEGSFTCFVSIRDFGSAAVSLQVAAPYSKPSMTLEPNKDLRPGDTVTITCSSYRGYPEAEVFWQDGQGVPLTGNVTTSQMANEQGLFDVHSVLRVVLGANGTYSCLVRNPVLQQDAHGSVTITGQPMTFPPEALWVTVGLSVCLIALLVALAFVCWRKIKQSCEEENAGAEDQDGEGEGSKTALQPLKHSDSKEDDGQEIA
Test method notes: cell-based or functional assay
Measure name: ADCC reporter assay, EC50 Value, CHOK1/B7-H3 cells (µg/mL)
The figure you give is taken to be in µg/mL; do not add the unit.

The examples below pair each entry with its known result.
Binder: 40511p1.1.G1 IgG (antibody, V domains shown) VH: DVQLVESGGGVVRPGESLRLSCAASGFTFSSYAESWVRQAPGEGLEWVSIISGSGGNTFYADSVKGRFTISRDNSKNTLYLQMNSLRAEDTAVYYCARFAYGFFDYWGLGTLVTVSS VL: EIVLTQSPGTLSVSPGEGATLSCRASQTVGSKLAWYQQKPGQPPSLLIYDASTRATGIPDRFSGSGSGTDFTLTISSLQSEDFAVYYCQQYRNWPPLTFGGGTKVEIK
Meas value: 0.0416

Binder: 40633p1.2.D11 IgG (antibody, V domains shown) VH: EVQLESGGGLVQPGGSLRLSCAASGFTVSYYGMSWVRQAPGKGLEWVSAIKQDGSEKYYADSVKGRFTISRDNSKNTLYLQMNSLRAEDTAVYYCARHWNDYSNAMNVWGQGTTVTVSS VL: QSVLTQPPSASGTPGQRVTISCSGSTSNIAIDFVNWYQQLPGTAPKLLIYTIDQRPSGVPDRFSGSKSGTSASLAISGLQSEDEAVYYCASWDASLNGWVFGRGTKLTVL
Meas value: 0.107

Binder: 40511p1.1.G3 IgG (antibody, V domains shown) VH: DVQLVESGGGVVRPGESLTLSCAASGFTINSYAVSWVRQAPGEGLEWVSGISGSGVRYYADSVKGRFTISRDDSNNTLYLQMNSLRAEDTAVYYCARSNKVTWNNFFDYWGLGTLVTVSS VL: EVVLTQSPGTLTLSPGERATLSCRASRSILTSLAWYQQKPGQAPRLLIYNTVTRATGIPARFSGSGSGTEFTLTINSLQSEDFAVYYCQQYYDWPPLTFGGGTKVEIK
Meas value: 0.0141

Binder: 40633p1.1.G11 IgG (antibody, V domains shown) VH: EVQLLESGGGLVQPGGSLRLSCAASGFTVSYYGMSWVRQAPGKGLEWVSVIKQDGSEEYYADSVKGRFTISRDNSKNTLYLQMNSPRAEDTAVYYCARHWNDYSNGMNVWGQGTTVTVSS VL: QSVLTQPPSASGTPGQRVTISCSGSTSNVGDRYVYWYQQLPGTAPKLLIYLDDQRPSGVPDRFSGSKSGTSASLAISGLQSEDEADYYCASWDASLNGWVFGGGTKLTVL
Meas value: 0.0344

Binder: 40633p1.2.D1 IgG (antibody, V domains shown) VH: EVQLLESGGGLVQPGGSLRLSCAASGFTFDVYGMSWVRQAPGKGLEWVSAINWNGGSTYYADSVKGRFTISRDNSENTLYLQMNSLRAEDTAVYYCAKEKWKHFIYYGMDVWGQGTTVTVSS VL: QSVLTQPASASGTPGQTVSISCSGSSSNIDSNTANWYQQLPGTAPKLLIYSNNQRPSGVPDRFSGSKSDTSASLAISGLQSEDEGDYYCSAWDDNLNGWLFGGGTKLTVL
Meas value: 0.0216

Recorded result, 40579p1.H7 IgG (antibody, V domains shown) VH: EVQLLESGGDLVQPGGSLRLSCAASGFNFSSYWMSWVRQAPGKGLEWVSGISISYGGNAYYADSVKGRFTVSRDNSKNTLYLQMNSLRAEDTAVYYCGRDRSPYQYRSMDVWGQGTTVTVSS VL: EIVLTQSPGTLSLSPGERATLSCRASQSIRSDLAWYQQKPGQAPRLLIYGASSRATGIPARFSGSGSGTEFTLTISSLQSEDFAVYYCQQYNNWPPLTFGGGTKVEIK , ADCC reporter assay, EC50 Value, CHOK1/B7-H3 cells: 0.0126

# ADCC reporter assay, EC50 Value, CHOK1/B7-H3 cells (binder: 40633p1.1.D11 IgG (antibody, V domains shown) VH: EVQLLESGGGLVQPGGSLRLSCAASGFTFRSYAMSWVRQAPGKGLEWVAYIGSSGGTTYYADSVKGRFTISRDNSKNTLYLQMNSLRAEDTAVYYCVKESYYYMDVWGQGTTVTVSS VL: QSVLTQPPSASGTPGQRVTISCSATISNIDINRVSWYQQLPGTAPKLLIFNSQRPSGVPDRFSGSKSGTSASLAISGLQSEDEADYYCATWDDSLNSWVFGGGTKLTVL ) is 0.0119

The reported ADCC reporter assay, EC50 Value, CHOK1/B7-H3 cells of the binder 40511p1.2.A4 IgG (antibody, V domains shown) VH: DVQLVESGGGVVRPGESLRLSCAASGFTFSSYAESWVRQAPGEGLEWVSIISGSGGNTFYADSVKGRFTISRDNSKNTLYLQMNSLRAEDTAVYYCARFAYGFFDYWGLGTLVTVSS VL: EIVLTQSPGTLSVSPGERATLSCRASQTVGSKLAWYQQKPGQAPRLLIYDASTRATDIPDRFSGSGSGTDFTLTISSLQSEDFAVYYCQQYRNWPPLTFGGGTKVEIK was 0.0318

Lab note: 40579p1.G1 IgG (antibody, V domains shown) VH: EVQLLESGGGLVQPGGSLRLSCAASGFNFSSYWMSWVRQAPGKGLEWVSGISISYGGNAYYADSVKGRFTVSRDNSKNTLYLQMNSLRAEDTAVYYCGRDRSPYQYRSMDVWGQGTTVTVSS VL: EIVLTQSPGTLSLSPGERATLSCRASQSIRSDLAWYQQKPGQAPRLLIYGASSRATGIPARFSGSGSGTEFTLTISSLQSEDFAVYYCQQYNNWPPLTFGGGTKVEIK gave ADCC reporter assay, EC50 Value, CHOK1/B7-H3 cells of 0.0115

According to the records, this binder 40633p1.2.C3 IgG (antibody, V domains shown) VH: EVQLLESGGGLVQPGGSLRLSCAASGFTVSYYGMSWVRQAPGKGLEWVSAIKQDGSEKYYADSVKGRFTISRDNSKNTLYLQMNSLRAEDTAVYYCARHWNDYSNAMNVWEQGTTVTVSS VL: QSVLTQPPSASGTPGQRVTISCSGSNSNVGGNYVSWYQQLPGTAPKLLIYRNSQRPSGVPDRFSGSKSGTSASLAISGLQSEDEAVYYCASWDASLNGWVFGGGTKLTVL displays ADCC reporter assay, EC50 Value, CHOK1/B7-H3 cells of 0.402
